tested on: HepG2 cells; experiment: Cell viability (WST-8) of anticancer agents with or without CBD; assay type: cell-based, human; conditions: Homo sapiens; HepG2, 48 h, without CBD; read-out: IC50 without CBD
measurement.type: pIC50
One number for each entry, as −log10 of the molar value.

// batch mode: one pIC50 value per listed entry
1. CNC(=O)c1cc(Oc2ccc(NC(=O)Nc3ccc(Cl)c(C(F)(F)F)c3)cc2)ccn1
2. CNC(=O)c1cc(Oc2ccc(NC(=O)Nc3ccc(Cl)c(C(F)(F)F)c3)c(F)c2)ccn1

Outgoing:
4.84
4.85

Data origin, for the record: patent US20260335340A1
